Origin of measurements: patent US20230048888A1

Would you kindly list half-life for each of these compounds?
Assay: Pharmacokinetics of Compounds 27, 40, 22 and 41 in ICR mice in different modes of administration
Type: in vivo
Conditions: ICR, mouse, in vivo, po, 5 mg/kg
Numbers only, in h.

compound="Cn1nnc(-c2ccc(CCNc3nc(N)n4nc(-c5ccco5)nc4n3)cc2)n1 [Compound 40]" valuereported=2.36

Kindly give each listed record's half-life.
1. Nc1nc(NCCc2ccc(NC3COC3)cc2)nc2nc(-c3ccco3)nn12 [Compound 22]
2. CCn1nnc(-c2ccc(CCNc3nc(N)n4nc(-c5ccco5)nc4n3)cc2)n1 [Compound 41]
3. COCCNc1ccc(CCNc2nc(N)n3nc(-c4ccco4)nc3n2)cc1 [Compound 27]

2.74
1.85
1.19

====

Assay: Pharmacokinetic evaluation of Compound 22 in female BALB/c mice in different vehicles
Type: in vivo
Settings: mouse, plasma, po, 100 mg/kg, 100 mg/kg p.o. single, Group 1, vehicle 40% PEG400/60% water, read-out: T½ (converted)
measuredAttribute: half-life (h)
One number for each entry, in h.

Fill blank: measured half-life of the compound Nc1nc(NCCc2ccc(NC3COC3)cc2)nc2nc(-c3ccco3)nn12 is ____. 3.04

====

Assay: Pharmacokinetics of acetate of Compound 22 in SD rats with single and repeated administration
Format: in vivo
Settings: male, Sprague-Dawley, rat, plasma, po, 63 mg/kg, Group 3 PO 63 mg/kg single, Male, read-out: Tmax (median)
measuredAttribute: Tmax (h)
Answers are plain numbers, in h.

Fill in: Tmax of CC(=O)O.Nc1nc(NCCc2ccc(NC3COC3)cc2)nc2nc(-c3ccco3)nn12 [Acetate of Compound 22] is ___ 1

====

Test: Pharmacokinetic evaluation of Compound 22 in female BALB/c mice in different vehicles
Format: in vivo
Conditions: mouse, plasma, po, 100 mg/kg, 100 mg/kg p.o. single, Group 1, vehicle 40% PEG400/60% water
measuredAttribute: Cmax

Item Nc1nc(NCCc2ccc(NC3COC3)cc2)nc2nc(-c3ccco3)nn12 [Compound 22] has what recorded Cmax? 2080 ng/mL

====

Assay: Solubility in biological vehicles (SGF, FaSSIF, FeSSIF) at 37° C., HPLC
Type: physicochemical
Details: simulated gastric fluid (SGF), 37 °C, simulated gastric fluid, thermodynamic from solid, SGF, 2 h
measuredAttribute: solubility at 2 h (µg/mL)
Answers are plain numbers, in µg/mL.

What measured solubility at 2 h goes with Nc1nc(NCCc2ccc(NC3COC3)cc2)nc2nc(-c3ccco3)nn12 [Compound 22] ? 712

====

Assay: Pharmacokinetics of acetate of Compound 22 in SD rats with single and repeated administration
Assay type: in vivo
Conditions: Sprague-Dawley (SD), rat, plasma, oral 63 mg/kg
measuredAttribute: bioavailability (%)
Answers are plain numbers, in %.

If you can, please state the reported bioavailability value of CC(=O)O.Nc1nc(NCCc2ccc(NC3COC3)cc2)nc2nc(-c3ccco3)nn12 [Acetate of Compound 22] . 65.5

====

Experiment: Pharmacokinetics of acetate of Compound 22 in SD rats with single and repeated administration
Type: in vivo
Conditions: female, Sprague-Dawley, rat, plasma, po, 189 mg/kg, Group 4 PO 189 mg/kg single, Female, read-out: Cmax
measuredAttribute: Cmax (µg/mL)
One number for each entry, in µg/mL.

Recorded Cmax for CC(=O)O.Nc1nc(NCCc2ccc(NC3COC3)cc2)nc2nc(-c3ccco3)nn12 [Acetate of Compound 22] , please? 59.6

====

Experiment: Pharmacokinetics of test compounds in SD rats (15.2; IV and PO, mixed administration)
Assay type: in vivo
Settings: male, Sprague-Dawley, rat, plasma; SD rats, PO, 10 mg/kg
Give Cmax for every item shown.
Mention the unit after the number when you answer.

compoundsmiles=Cn1nnc(-c2ccc(CCNc3nc(N)n4nc(-c5ccco5)nc4n3)cc2)n1 valuereported="2440 ng/mL"

With those in mind, consider the next compound.
// lookup Cmax for COCCNc1ccc(CCNc2nc(N)n3nc(-c4ccco4)nc3n2)cc1 325 ng/mL

====

Assay: Pharmacokinetics of acetate of Compound 22 in SD rats with single and repeated administration
Assay type: in vivo
Settings: Sprague-Dawley (SD), rat, plasma, oral 21 mg/kg
measuredAttribute: bioavailability
The number alone won't do; follow it with the unit.

Using the record for CC(=O)O.Nc1nc(NCCc2ccc(NC3COC3)cc2)nc2nc(-c3ccco3)nn12 [Acetate of Compound 22] , report its bioavailability. 76.5%

====

Experiment: Pharmacokinetics of Compounds 22, 27 and 40 in SD rats after oral administration for 7 consecutive days
Format: in vivo
Conditions: male, Sprague-Dawley, rat, plasma, po, 30 mg/kg, male SD rats, oral 30 mg/kg once a day for 7 consecutive days, Day 7; median
measuredAttribute: Tmax

Check out these entries, answers already filled in.
compound="Cn1nnc(-c2ccc(CCNc3nc(N)n4nc(-c5ccco5)nc4n3)cc2)n1 [Compound 40]" valuereported="4 h"
compound="Nc1nc(NCCc2ccc(NC3COC3)cc2)nc2nc(-c3ccco3)nn12 [Compound 22]" valuereported="1.5 h"

For the compound shown here, COCCNc1ccc(CCNc2nc(N)n3nc(-c4ccco4)nc3n2)cc1 [Compound 27] , give the reported Tmax. 1.5 h

====

Target: UniProtKB P0DMS8
Sequence (P0DMS8 whole entry): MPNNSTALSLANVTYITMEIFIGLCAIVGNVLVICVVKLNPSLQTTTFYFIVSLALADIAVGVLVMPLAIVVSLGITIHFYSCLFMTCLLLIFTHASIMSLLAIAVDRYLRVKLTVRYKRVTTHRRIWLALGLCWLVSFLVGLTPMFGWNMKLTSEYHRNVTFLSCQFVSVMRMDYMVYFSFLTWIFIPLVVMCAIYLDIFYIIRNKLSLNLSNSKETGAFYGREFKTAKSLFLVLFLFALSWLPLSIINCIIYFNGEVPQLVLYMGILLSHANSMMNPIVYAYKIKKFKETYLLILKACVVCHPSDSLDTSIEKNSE
Test: Calcium flow test (FLIPR), ADORA3 stably transfected CHO
Conditions: Table 9
measuredAttribute: IC50
Kindly format the answer as number then unit.

Recorded results for 2 molecules are shown here.
molecule=Nc1nc(NCCc2ccc(NC3COC3)cc2)nc2nc(-c3ccco3)nn12 measuredattribute=IC50 valuereported="931 nM"
molecule=Cn1nnc(-c2ccc(CCNc3nc(N)n4nc(-c5ccco5)nc4n3)cc2)n1 measuredattribute=IC50 valuereported="6300 nM"

GET /values?readout=IC50&item= Nc1nc2ccc(Cl)cc2c2nc(-c3ccco3)nn12 [CGS-15943, reference compound] 32.1 nM

====

Assay: Pharmacokinetics of acetate of Compound 22 in SD rats with single and repeated administration
Format: in vivo
Conditions: female, Sprague-Dawley, rat, plasma, po, 21 mg/kg, Group 2 PO 21 mg/kg single, Female, read-out: T1/2 (converted)
measuredAttribute: half-life (min)
Answers are plain numbers, in min.

Any idea what half-life was measured for CC(=O)O.Nc1nc(NCCc2ccc(NC3COC3)cc2)nc2nc(-c3ccco3)nn12 [Acetate of Compound 22] ? 224

====

Experiment: Pharmacokinetic evaluation of Compound 22 in female BALB/c mice in different vehicles
Format: in vivo
Details: mouse, plasma, po, 100 mg/kg, 100 mg/kg p.o. single, Group 1, vehicle 40% PEG400/60% water
Protocol: BALB/c mice, female, 7-9 weeks old (the age of mice at the start of the experiment), weight: 19.2-22.1 g, […] (34 mice plus another 10 surplus mice). They were purchased from Shanghai Lingchang Biotechnology Co., Ltd. (LC), with animal certificate number: 2013001835211. Rearing environment: SPF level. After single administration, plasma was collected from each group at 0.25 h, 0.5 h, 1 h, 2 h, 4 h, 6 h, 8 h and 24 h, with 3 mice at each time point, and the experiment was terminated after 24h. […]
measuredAttribute: Tmax (h)
Numbers only, in h.

What value of measured Tmax is listed for Nc1nc(NCCc2ccc(NC3COC3)cc2)nc2nc(-c3ccco3)nn12 [Compound 22] ? 1

====

Experiment: Pharmacokinetics of acetate of Compound 22 in SD rats with single and repeated administration
Type: in vivo
Conditions: both sexes, Sprague-Dawley, rat, plasma, po, 63 mg/kg, Group 3 PO 63 mg/kg single, Overall, read-out: Cmax
Protocol: The formulation for Group 5 was prepared before administration on Day 1, and then, divided into daily doses and stored at 5±3° C. […] Pharmacokinetic data was calculated using the linear logarithmic trapezoidal method, with a weight of 1/(Y*Y). Samples with the sample concentration below the lower limit of quantification were excluded from the calculation of pharmacokinetic parameters. […]
measuredAttribute: Cmax (ng/mL)
Give bare numbers, in ng/mL.

Dear colleague, I am looking for the recorded Cmax of the following compound: CC(=O)O.Nc1nc(NCCc2ccc(NC3COC3)cc2)nc2nc(-c3ccco3)nn12 [Acetate of Compound 22] 27400

====

Exercise: for every item that follows, state its recorded AUC(0-t).
Test: Pharmacokinetics of test compounds in SD rats (15.2; IV and PO, mixed administration)
Format: in vivo
Conditions: male, Sprague-Dawley, rat, plasma; SD rats, PO, 2 mg/kg, mixed administration (6 compounds per group)
Excerpt: Administration dose: the compounds in this group were all administered in a mixed way, with 6 compounds in each group for mixed PO administration. Blood was collected based on the blood collection points in the test protocol. […] The plasma samples were processed according to the method for “sample treatment” and then analyzed by LC-MS/MS, accompanied with the standard curve and quality control samples. […]
One number for each entry, in ng·h/mL.

Solved cases below.
compoundsmiles=Nc1nc(NCCc2ccc(NC3COC3)cc2)nc2nc(-c3cccc(F)c3)nn12 unitofmeasurement=ng·h/mL valuereported=1830
compoundsmiles=Nc1nc(NCCc2ccc(-c3nnn(CC(F)(F)F)n3)cc2)nc2nc(-c3ccco3)nn12 unitofmeasurement=ng·h/mL valuereported=739
compoundsmiles=Nc1nc(NCCc2ccc(NC3CCOCC3)cc2)nc2nc(-c3ccco3)nn12 unitofmeasurement=ng·h/mL valuereported=441
compoundsmiles=CCCn1nnc(-c2ccc(CCNc3nc(N)n4nc(-c5ccco5)nc4n3)cc2)n1 unitofmeasurement=ng·h/mL valuereported=315
compoundsmiles=N#CCn1nnc(-c2ccc(CCNc3nc(N)n4nc(-c5ccco5)nc4n3)cc2)n1 unitofmeasurement=ng·h/mL valuereported=341

Batch request: AUC(0-t) for each of the following compounds.
1. COCCN(CCOC)c1ccc(CCNc2nc(N)n3nc(-c4ccco4)nc3n2)cc1
2. Cn1nnc(-c2ccc(CCNc3nc(N)n4nc(-c5ccco5)nc4n3)cc2)n1

1: 603; 2: 2360

For every item below, please supply its AUC(0-t).
1. COCC(COC)Nc1ccc(CCNc2nc(N)n3nc(-c4ccco4)nc3n2)cc1
2. Cn1cnc(-c2ccc(CCNc3nc(N)n4nc(-c5ccco5)nc4n3)cc2)n1
3. CCn1nnc(-c2ccc(CCNc3nc(N)n4nc(-c5ccco5)nc4n3)cc2)n1

1600
388
1890
